Data origin, for the record: ChEMBL document CHEMBL2413072

tested on: M14; assay: Growth inhibition of human M14 cells assessed as cell growth at 10^-8 M by sulforhodamine B assay; type: functional; conditions: read-out: Activity
Documented growth at 0.01 µM across a set of compounds
Please state the figure in %; there is no need to write the unit.

Guide cases for growth at 0.01 µM, answers given:
{"Compound": "C/C=C(/C)C(=O)O[C@@H]1CC(C)(C)C[C@H]2C3=CC[C@@H]4[C@@]5(C)CC[C@H](O)C(C)(C)[C@@H]5CC[C@@]4(C)[C@]3(C)CC[C@@]12C(=O)O [Reduced Lantadene A]", "growth at 0.01 µM / %": 100}
{"Compound": "CC1(C)C[C@@H](O)[C@]2(C(=O)O)CC[C@]3(C)C(=CC[C@@H]4[C@@]5(C)C/C(=C\\C=C\\c6ccccc6)C(=O)C(C)(C)[C@@H]5CC[C@]43C)[C@@H]2C1", "growth at 0.01 µM / %": 97}
{"Compound": "CC(C)=CC(=O)O[C@@H]1CC(C)(C)C[C@H]2C3=CC[C@@H]4[C@@]5(C)CCC(=O)C(C)(C)[C@@H]5CC[C@@]4(C)[C@]3(C)CC[C@@]12C(=O)O", "growth at 0.01 µM / %": 98}

What growth at 0.01 µM value was documented for this compound, C/C=C(/C)C(=O)O[C@@H]1CC(C)(C)C[C@H]2C3=CC[C@@H]4[C@@]5(C)CCC(=O)C(C)(C)[C@@H]5CC[C@@]4(C)[C@]3(C)CC[C@@]12C(=O)O [LANTADENE A] ?
96

I am curious: what growth at 0.01 µM value has been reported for CC(C)=CC(=O)O[C@@H]1CC(C)(C)C[C@H]2C3=CC[C@@H]4[C@@]5(C)CC[C@H](O)C(C)(C)[C@@H]5CC[C@@]4(C)[C@]3(C)CC[C@@]12C(=O)O [Reduced Lantadene B] ?
94
